# TARGET_OR_TEST_SYSTEM: PADI4 (Homo sapiens, UniProt Q9UM07)
# Construct: His6; made in house
# Sequence (Q9UM07 whole entry): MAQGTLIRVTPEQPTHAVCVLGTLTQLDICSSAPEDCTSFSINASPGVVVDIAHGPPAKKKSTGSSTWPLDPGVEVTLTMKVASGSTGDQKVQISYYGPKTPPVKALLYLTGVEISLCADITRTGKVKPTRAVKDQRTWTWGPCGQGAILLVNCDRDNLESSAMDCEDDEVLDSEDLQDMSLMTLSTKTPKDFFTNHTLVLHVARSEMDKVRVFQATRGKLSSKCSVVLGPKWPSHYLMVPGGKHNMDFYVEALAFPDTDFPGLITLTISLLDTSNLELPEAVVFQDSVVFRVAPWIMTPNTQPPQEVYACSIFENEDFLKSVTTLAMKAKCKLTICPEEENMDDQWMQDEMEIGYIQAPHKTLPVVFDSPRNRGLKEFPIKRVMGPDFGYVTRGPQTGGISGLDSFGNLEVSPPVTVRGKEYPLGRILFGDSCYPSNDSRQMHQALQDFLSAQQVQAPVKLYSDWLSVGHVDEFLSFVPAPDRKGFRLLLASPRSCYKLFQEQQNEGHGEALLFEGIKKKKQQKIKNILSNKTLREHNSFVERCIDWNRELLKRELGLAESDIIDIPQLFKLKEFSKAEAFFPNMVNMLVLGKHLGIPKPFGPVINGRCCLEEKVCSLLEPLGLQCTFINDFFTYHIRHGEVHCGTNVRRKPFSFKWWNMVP
# ASSAY_DETAILS: Surface plasmon resonance (SPR), single cycle kinetics
# Format: binding
# CONDITIONS_USED: each replicate
Where a SMILES comes first, the peptide text is derived from it. Bridges are numbered along the chain shown (N, C = ends). [ ]: non-standard residue; d: D form. Orn(fluoroacetimidoyl) = N=C(CF)NCCC[C@H](N)C(=O)O
Give k2 / kinact for every item shown.
Please respond with the number in s⁻¹ and leave the unit unwritten.

Qu. Record request: k2 / kinact value, item CC(C)[C@@H]1NC(=O)[C@@H](Cc2ccc(O)cc2)NC(=O)CSC[C@@H](C(=O)NCC(N)=O)NC(=O)[C@H](Cc2ccc(O)cc2)NC(=O)[C@H](CCCCN)NC(=O)[C@H](Cc2c[nH]c3ccccc23)NC(=O)[C@H](CCC(=O)O)NC(=O)[C@H](CCCCN)NC(=O)[C@H](CCCNC(=N)CF)NC(=O)[C@H](CO)NC(=O)[C@H](Cc2ccc(O)cc2)NC1=O [cP4_7, yVYS(2)KEWKYCG] ({CH2CO}-[dY]VYS[Orn(fluoroacetimidoyl)]KEWKYCG-NH2; thioether N-11)
Ans. 0.0094

Qu. Recorded k2 / kinact for N=C(N)NCCC[C@@H]1NC(=O)[C@H](CCCCN)NC(=O)[C@H](CC(N)=O)NC(=O)[C@H](Cc2ccccc2)NC(=O)[C@H](CC(=O)O)NC(=O)[C@H](Cc2c[nH]c3ccccc23)NC(=O)[C@H](CC(N)=O)NC(=O)[C@H](CCCNC(=N)CF)NC(=O)[C@H](Cc2ccc(O)cc2)NC(=O)[C@H](Cc2c[nH]c3ccccc23)NC(=O)[C@@H](Cc2ccc(O)cc2)NC(=O)CSC[C@@H](C(=O)NCC(N)=O)NC1=O [cP4_10, yWY(2)NWDFNKRCG] ({CH2CO}-[dY]WY[Orn(fluoroacetimidoyl)]NWDFNKRCG-NH2; thioether N-12) , please?
Ans. 0.0034

Qu. Consider the compound CC[C@H](C)[C@@H]1NC(=O)[C@H](CCCNC(=N)N)NC(=O)[C@H](Cc2ccc(O)cc2)NC(=O)[C@H](CCCNC(=N)N)NC(=O)[C@H](CCC(=O)O)NC(=O)[C@H](CCCNC(=N)CF)NC(=O)[C@H](CC(N)=O)NC(=O)[C@H](CC(C)C)NC(=O)[C@@H](Cc2ccc(O)cc2)NC(=O)CSC[C@@H](C(=O)NCC(N)=O)NC(=O)[C@H](CO)NC1=O [cP4_18] ({CH2CO}-[dY]LN[Orn(fluoroacetimidoyl)]ERYRISCG-NH2; thioether N-11) and give its measured k2 / kinact.
Ans. 0.0019

Qu. Request the reported k2 / kinact associated with N=C(N)NCCC[C@@H]1NC(=O)[C@H](CCCNC(=N)CF)NC(=O)[C@H](CC(=O)O)NC(=O)[C@H](Cc2ccc(O)cc2)NC(=O)[C@H](CCCCN)NC(=O)[C@H](CO)NC(=O)[C@@H](Cc2ccc(O)cc2)NC(=O)CSC[C@@H](C(=O)NCC(N)=O)NC(=O)[C@H](CC(=O)O)NC(=O)[C@H](CCCNC(=N)N)NC(=O)[C@@H]2CCCN2C(=O)[C@H](CO)NC1=O [cP4_4, ySKYD(2)RSPRDCG] ({CH2CO}-[dY]SKYD[Orn(fluoroacetimidoyl)]RSPRDCG-NH2; thioether N-12)
Ans. 0.0019

Qu. Please look up its k2 / kinact: CC(C)C[C@@H]1NC(=O)[C@H](CCCCN)NC(=O)[C@H](CO)NC(=O)[C@H](CO)NC(=O)[C@H](Cc2ccc(O)cc2)NC(=O)[C@H](Cc2c[nH]cn2)NC(=O)[C@H](CCCNC(=N)CF)NC(=O)[C@H](CC(=O)O)NC(=O)[C@H](CC(C)C)NC(=O)[C@@H](Cc2ccc(O)cc2)NC(=O)CSC[C@@H](C(=O)NCC(N)=O)NC(=O)[C@H](Cc2ccc(O)cc2)NC1=O [cP4_15, yLD(2)HYSSKLYCG] ({CH2CO}-[dY]LD[Orn(fluoroacetimidoyl)]HYSSKLYCG-NH2; thioether N-12)
Ans. 0.0051

Qu. Suppose we examine the compound CC[C@H](C)[C@@H]1NC(=O)[C@@H](Cc2ccc(O)cc2)NC(=O)CSC[C@@H](C(=O)NCC(N)=O)NC(=O)[C@H]([C@@H](C)O)NC(=O)[C@H](C(C)C)NC(=O)[C@H](CC(=O)O)NC(=O)[C@H](CCCNC(=N)CF)NC(=O)[C@H](CC(C)C)NC(=O)[C@H](CC(=O)O)NC(=O)[C@H](Cc2c[nH]c3ccccc23)NC1=O [cP4_13] ({CH2CO}-[dY]IWDL[Orn(fluoroacetimidoyl)]DVTCG-NH2; thioether N-10) ; what k2 / kinact value has been reported?
Ans. 0.0029

Values compiled from paper PMC11659602.
